# procedure summary: in vitro
# condition parameters: human, hek293t cells
endpoint: viability at 48 h, 25 µM (%)
Give a bare numeral; the unit % is implied.

Before answering, review these 5 worked examples.
C=CC(=O)Nc1ccc2oc(CC(C)(C)C)nc2c1 : 82.2
C=CC(=O)NCc1ccccc1S(=O)(=O)NC : 92.3
C=CC(=O)NC[C@@H]1C[C@H](F)CN1Cc1csc(C)n1 : 192
O=C(CCl)Nc1ccc(Cl)cc1F : 0.433
CC(C)OC(=O)c1c(NC(=O)CCl)sc2c1CCCC2 : 112

Exercise: Fill in: viability at 48 h, 25 µM of `Cc1c(C=C(C#N)C(=O)Nc2ccccc2F)cc(C#N)n1C` is ___
Key: 83.9

###

# procedure summary: in vitro
# condition parameters: human, hek293t cells
Property: viability at 48 h, 25 µM; scope: individual compounds

Before answering, review these 4 worked examples.
N#CC(=Cc1ccco1)C(=O)NC1CC1 : 112%
C=CC(=O)Nc1ccc(C(=O)NC2CC(C)(C)OC2=O)cc1 (centres unmarked) : 82.4%
COCCn1c(N)c(C(=O)CCl)c(=O)[nH]c1=O : 103%
Cc1ccccc1N1C(=O)C=CC1=O : 109%

Exercise: Fill in: viability at 48 h, 25 µM of `COCCn1c(C)cc(C(=O)CCl)c1C` is ___
Key: 110%

###

# procedure summary: in vitro
# condition parameters: human, hek293t cells
Output TRUE for records whose viability at 48 h, 25 µM is lower than 90%, FALSE for records at or above 90%.

Answered cases to consult:
CC(C)(C)OC(=O)[C@H]1C[C@@H]1C(=O)CCl (racemic) : TRUE
C=CC(=O)N1CCC(C(=O)Nc2ncc(CCO)s2)CC1 : TRUE
C=CC(=O)N(C)CC(=O)N1CCOC(c2ccccc2Cl)C1 (stereo not drawn) : TRUE

Read the next record carefully.
Exercise: In plain terms, does C=CC(=O)NCCC(=O)NC1CCCCC12OCCO2 (stereo not drawn) come in under 90% for viability at 48 h, 25 µM?
Key: FALSE

###

# procedure summary: in vitro
# condition parameters: human, hek293t cells
Output Fulfilled for records whose viability at 48 h, 25 µM is lower than 80%, Not fulfilled for records at or above 80%.

CC(C)NC(=O)C(C#N)=Cc1cccc(F)c1F : Not fulfilled
C=CC(=O)NCC(C)(C)C1CCCCC1 : Fulfilled
NC(=O)c1coc(C(=O)CCl)c1 [10-C05, 5-(2-chloroacetyl)furan-3-carboxamide] : Fulfilled
C=CC(=O)NC(c1ccccc1)C1CCC1 (stereo not shown) : Fulfilled
C=CC(=O)N1CCOCC1c1ncnn1Cc1ccccc1 (stereo not shown) : Fulfilled

Exercise: In plain terms, does `N#CC(=CC(Cl)=Cc1ccccc1)C(=O)NC1CCCCC1` come in under 80% for viability at 48 h, 25 µM?
Key: Fulfilled

Exercise: In plain terms, does N#CC(=Cc1ccc(Cl)cc1)C(N)=O [8-L21, 3-(4-chlorophenyl)-2-cyanoprop-2-enamide] come in under 80% for viability at 48 h, 25 µM?
Key: Not fulfilled

Exercise: In plain terms, does CC(Cl)C(=O)N1CCOC(c2ccnc(N(C)C)n2)C1 (stereo not shown) come in under 80% for viability at 48 h, 25 µM?
Key: Not fulfilled
